Target: EPHB1 (UniProt P54762)
Sequence (P54762 whole entry, looked up): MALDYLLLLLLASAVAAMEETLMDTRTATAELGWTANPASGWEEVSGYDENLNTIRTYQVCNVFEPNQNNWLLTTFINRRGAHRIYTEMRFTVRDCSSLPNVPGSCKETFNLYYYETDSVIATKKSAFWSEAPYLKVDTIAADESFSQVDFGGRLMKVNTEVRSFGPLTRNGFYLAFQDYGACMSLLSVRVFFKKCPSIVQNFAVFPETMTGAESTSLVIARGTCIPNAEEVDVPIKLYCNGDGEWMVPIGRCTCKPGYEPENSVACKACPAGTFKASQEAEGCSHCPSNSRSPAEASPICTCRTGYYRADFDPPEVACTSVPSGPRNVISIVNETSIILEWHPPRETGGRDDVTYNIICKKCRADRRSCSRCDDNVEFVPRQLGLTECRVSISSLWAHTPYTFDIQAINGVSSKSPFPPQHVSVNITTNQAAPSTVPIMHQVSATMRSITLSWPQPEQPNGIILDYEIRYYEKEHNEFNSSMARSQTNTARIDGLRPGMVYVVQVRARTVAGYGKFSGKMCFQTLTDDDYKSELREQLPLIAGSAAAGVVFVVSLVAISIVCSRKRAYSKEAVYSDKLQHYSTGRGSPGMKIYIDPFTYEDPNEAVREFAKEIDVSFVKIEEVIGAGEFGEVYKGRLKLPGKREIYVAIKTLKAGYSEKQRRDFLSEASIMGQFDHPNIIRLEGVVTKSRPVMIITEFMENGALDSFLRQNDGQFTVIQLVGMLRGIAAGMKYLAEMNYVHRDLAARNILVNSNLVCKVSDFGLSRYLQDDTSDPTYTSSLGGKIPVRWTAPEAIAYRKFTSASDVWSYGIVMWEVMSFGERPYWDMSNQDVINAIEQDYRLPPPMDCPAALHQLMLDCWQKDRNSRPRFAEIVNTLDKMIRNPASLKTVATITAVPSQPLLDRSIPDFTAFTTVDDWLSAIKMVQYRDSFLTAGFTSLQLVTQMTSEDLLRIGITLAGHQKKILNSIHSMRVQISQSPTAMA
Experiment: phosphorylation enrichment, bacterial display (enrichment ratio); higher = better substrate or ligand; peptides without Tyr show the background
Returns one of yes (1) or no (0); yes (1) when phosphorylation enrichment is >= 0.5.

INSERT INTO assay_data (seq_string, qualitative_label) VALUES
  ('HLVSEYQQYQD [TUBB3_Y422_D417H]', 'yes (1)'),
  ('YQASYYRRGDR [LTK_Y677_R673Q]', 'no (0)'),
  ('LDVDVYGPSVP [NUBPL_Y109]', 'yes (1)'),
  ('SETSRYLSELF [KCNJ3_Y67_D70E]', 'no (0)'),
  ('RKLASYQSCLL [DHX37_Y1080_R1081Q]', 'yes (1)'),
  ('FSEVRYVKEPY [HIPK4_Y170]', 'no (0)'),
  ('GGPAEYLRRAS [PKLR_Y38_G37E]', 'no (0)'),
  ('GKTFTYRSVFF [ZNF80_Y200]', 'no (0)'),
  ('VLALWYFFLTH [ZDHHC23_Y127_YF]', 'yes (1)'),
  ('TTSQPYRCLCS [USH2A_Y534]', 'no (0)'),
  ('KRYRIYHLATS [BRCA2_Y3009]', 'no (0)'),
  ('VIKDKYPKARF [APTX_Y209_YF]', 'no (0)'),
  ('ALWYIYLHTRS [ENG_Y614_S615L]', 'yes (1)'),
  ('KPFRVYCDMNT [FGB_Y269_YF]', 'yes (1)'),
  ('DGKYSYLKVGH [GRM3_Y480_G475D]', 'no (0)'),
  ('VGQRPYQPLPE [REEP3_Y170]', 'no (0)'),
  ('KEKLCYVAPDF [ACTA1_Y220_L223P]', 'yes (1)'),
  ('YVSSFYHAFSG [ACTN4_Y265]', 'yes (1)'),
  ('PSNTDYPGPHS [TP63_Y171]', 'yes (1)'),
  ('TGDFGYRTPGY [TNS2_Y668_A670T]', 'no (0)'),
  ('FLAVGYHQPHI [IDS_Y225_K227Q]', 'no (0)'),
  ('FEGAIYRKDVG [GART_Y417]', 'no (0)'),
  ('GITVAYTIPKK [UBA5_Y372]', 'no (0)'),
  ('KVQVSYKGDTK [HSPA1A_Y107_E110D]', 'no (0)'),
  ('IKGIRYLHHQG [GUCY2D_Y656_R660Q]', 'no (0)');

---

Biological target: EPHB1 (UniProt P54762)
Assay: phosphorylation enrichment, bacterial display (enrichment ratio); higher = better substrate or ligand; peptides without Tyr show the background
Use phosphorylation enrichment to assign classes; range list: lower band (below 0.6), central band (0.6 to below 0.8), upper band (0.8 or more)

INSERT INTO measurements (seq_string, qualitative_label) VALUES
  ('IQVNAYFSPIH [ADSL_Y432_D430N]', 'central band'),
  ('GSSKIYFLHAD [TLR5_Y108_P112A]', 'lower band'),
  ('SLKEFYGEDAK [ALDH3A1_Y272]', 'lower band'),
  ('RKETFYTLSCR [GUCY2C_Y681]', 'upper band'),
  ('VSLEAYCKHKF [RXRA_Y403_A398V_YF]', 'lower band'),
  ('NNKKDYYDMYE [SLC26A3_Y526_K521N]', 'upper band'),
  ('MDYRSYPHEYG [RBM10_Y44_R46H]', 'lower band'),
  ('FIATQYSLCPR [LBR_Y166_R169C_YF]', 'central band'),
  ('SVTCTYSPAHN [TP53_Y126_L130H]', 'central band'),
  ('PEVRRHVLPLN [RPE65_Y368_Y368H]', 'upper band'),
  ('HIKHNYECLVY [XRCC5_Y416]', 'upper band');

---

Molecular target: EPHB1 (UniProt P54762)
Assay: phosphorylation enrichment, bacterial display (enrichment ratio); higher = better substrate or ligand; peptides without Tyr show the background
Recorded phosphorylation enrichment, one value per entry.
outcome-measure: phosphorylation enrichment

INSERT INTO assay_data (seq_string, outcome_measure, numeric_result) VALUES
  ('KLMTEYKRRKQ [ARFGEF3_Y2029_K2031R]', 'phosphorylation enrichment', 0.477),
  ('LQFKNYQQLFD [MAN2A1_Y442]', 'phosphorylation enrichment', 0.641),
  ('LSFSEYASVQV [SIRPA_Y496_P491L]', 'phosphorylation enrichment', 7.83),
  ('KHCEDYVFSFN [DSC1_Y846_C848F_YF]', 'phosphorylation enrichment', 0.776),
  ('WIGRKYKKVRF [F8_Y442_R437W]', 'phosphorylation enrichment', 0.547),
  ('IENKLCGMSDP [RET_Y1062_Y1062C]', 'phosphorylation enrichment', 0.693),
  ('TVQIMYGCDVG [HLA-A_Y123_I119V]', 'phosphorylation enrichment', 0.676),
  ('DEEEEYEFMNR [ERBB3_Y1197_D1194E_YF]', 'phosphorylation enrichment', 0.62),
  ('HFMKLYEEKTG [PARP1_Y618]', 'phosphorylation enrichment', 0.482),
  ('QNRELYSEGLG [CNKSR1_Y665]', 'phosphorylation enrichment', 0.536),
  ('DENWFYMRAAS [RPS19_Y54_T55M]', 'phosphorylation enrichment', 0.718),
  ('MFNPCYGLFEF [NEDD4L_Y680_Y679C_YF]', 'phosphorylation enrichment', 0.633),
  ('NYADPYRQLPY [CTNND2_Y503_Q507P]', 'phosphorylation enrichment', 10.1),
  ('TLNHQYDFTFH [CSNK1A1_Y292_D297H_YF]', 'phosphorylation enrichment', 0.759),
  ('ADARMCGVLPW [PLP1_Y207_Y207C]', 'phosphorylation enrichment', 0.606),
  ('KSIEEYLKLVG [RASAL2_Y381]', 'phosphorylation enrichment', 0.468),
  ('MSRNLYSGDYY [DDR2_Y736]', 'phosphorylation enrichment', 11.3),
  ('TRYDEYLEVTK [MAP1A_Y2217_H2214Y]', 'phosphorylation enrichment', 0.98);

---

Molecular target: MERTK (UniProt Q12866)
Sequence (Q12866 whole entry, looked up): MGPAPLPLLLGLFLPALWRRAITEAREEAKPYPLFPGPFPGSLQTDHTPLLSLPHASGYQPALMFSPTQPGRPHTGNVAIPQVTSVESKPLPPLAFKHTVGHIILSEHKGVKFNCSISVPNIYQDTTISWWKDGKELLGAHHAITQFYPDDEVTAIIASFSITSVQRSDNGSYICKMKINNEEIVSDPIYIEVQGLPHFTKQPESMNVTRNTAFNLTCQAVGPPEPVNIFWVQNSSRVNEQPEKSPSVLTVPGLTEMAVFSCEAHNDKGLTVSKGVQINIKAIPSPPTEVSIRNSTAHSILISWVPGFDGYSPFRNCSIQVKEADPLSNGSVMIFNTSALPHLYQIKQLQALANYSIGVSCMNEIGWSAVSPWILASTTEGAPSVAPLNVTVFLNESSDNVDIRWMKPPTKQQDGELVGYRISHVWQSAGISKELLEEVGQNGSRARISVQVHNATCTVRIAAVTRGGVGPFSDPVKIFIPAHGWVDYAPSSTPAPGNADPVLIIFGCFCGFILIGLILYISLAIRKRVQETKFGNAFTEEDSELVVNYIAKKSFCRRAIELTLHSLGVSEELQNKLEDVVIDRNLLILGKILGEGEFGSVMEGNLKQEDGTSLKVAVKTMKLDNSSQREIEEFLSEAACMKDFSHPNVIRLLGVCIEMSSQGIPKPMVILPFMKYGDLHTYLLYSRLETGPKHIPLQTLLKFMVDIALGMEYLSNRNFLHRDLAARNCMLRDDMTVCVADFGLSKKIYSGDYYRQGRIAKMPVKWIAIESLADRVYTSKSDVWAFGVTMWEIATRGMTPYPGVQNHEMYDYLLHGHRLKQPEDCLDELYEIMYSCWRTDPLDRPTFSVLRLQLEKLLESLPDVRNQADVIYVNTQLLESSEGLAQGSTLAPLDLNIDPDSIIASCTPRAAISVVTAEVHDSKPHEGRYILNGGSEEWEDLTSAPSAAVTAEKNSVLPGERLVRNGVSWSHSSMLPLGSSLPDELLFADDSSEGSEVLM
Assay: phosphorylation enrichment, bacterial display (enrichment ratio); higher = better substrate or ligand; peptides without Tyr show the background
outcome-measure: phosphorylation enrichment

INSERT INTO results (seq_string, outcome_measure, result) VALUES
  ('IYKAAYFGVYD [SLC25A4_Y191_R188K]', 'phosphorylation enrichment', 1.4),
  ('LLREWYVQDPF [SIX3_Y225_L226V_YF]', 'phosphorylation enrichment', 0.443),
  ('MLEVPYVDRNS [F10_Y384]', 'phosphorylation enrichment', 0.317),
  ('HVEAVYIDIAD [PITPNA_Y140]', 'phosphorylation enrichment', 0.708),
  ('TEDELYQLFLQ [RASGRP2_Y378_S381F]', 'phosphorylation enrichment', 2.01),
  ('YVSSFYHAFSG [ACTN4_Y265]', 'phosphorylation enrichment', 8.9),
  ('TTTQAYRVNER [PRKN_Y391_D394N]', 'phosphorylation enrichment', 0.4);

---

Biological target: Grb2 SH2 (UniProt P62993)
Sequence (P62993 whole entry, looked up): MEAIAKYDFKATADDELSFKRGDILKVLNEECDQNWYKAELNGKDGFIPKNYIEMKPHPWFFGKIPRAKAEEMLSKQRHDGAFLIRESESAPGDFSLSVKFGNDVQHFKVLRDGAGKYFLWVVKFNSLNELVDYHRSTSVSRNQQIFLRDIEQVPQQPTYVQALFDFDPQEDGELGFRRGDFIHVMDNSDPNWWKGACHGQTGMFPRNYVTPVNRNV
Assay: SH2 binding enrichment of the phosphorylated peptide, bacterial display (enrichment ratio); higher = better substrate or ligand; peptides without Tyr show the background
Listing of entries alongside the reported SH2 binding enrichment.
outcome-measure: SH2 binding enrichment

INSERT INTO measurements (seq_string, numeric_result) VALUES
  ('RLAKTYETTLK [ALB_Y377_E382K]', 0.809),
  ('IKGIRYLHHQG [GUCY2D_Y656_R660Q]', 0.871),
  ('NKHTNYTMEHI [ACTN1_Y708]', 0.814),
  ('VQQVIYATGAL [MYH7_Y422]', 0.798),
  ('SEQNNYSRVAN [CWC22_Y797_R794Q]', 0.784);

---

Target: FGFR3 (UniProt P22607)
Sequence (P22607 whole entry, looked up): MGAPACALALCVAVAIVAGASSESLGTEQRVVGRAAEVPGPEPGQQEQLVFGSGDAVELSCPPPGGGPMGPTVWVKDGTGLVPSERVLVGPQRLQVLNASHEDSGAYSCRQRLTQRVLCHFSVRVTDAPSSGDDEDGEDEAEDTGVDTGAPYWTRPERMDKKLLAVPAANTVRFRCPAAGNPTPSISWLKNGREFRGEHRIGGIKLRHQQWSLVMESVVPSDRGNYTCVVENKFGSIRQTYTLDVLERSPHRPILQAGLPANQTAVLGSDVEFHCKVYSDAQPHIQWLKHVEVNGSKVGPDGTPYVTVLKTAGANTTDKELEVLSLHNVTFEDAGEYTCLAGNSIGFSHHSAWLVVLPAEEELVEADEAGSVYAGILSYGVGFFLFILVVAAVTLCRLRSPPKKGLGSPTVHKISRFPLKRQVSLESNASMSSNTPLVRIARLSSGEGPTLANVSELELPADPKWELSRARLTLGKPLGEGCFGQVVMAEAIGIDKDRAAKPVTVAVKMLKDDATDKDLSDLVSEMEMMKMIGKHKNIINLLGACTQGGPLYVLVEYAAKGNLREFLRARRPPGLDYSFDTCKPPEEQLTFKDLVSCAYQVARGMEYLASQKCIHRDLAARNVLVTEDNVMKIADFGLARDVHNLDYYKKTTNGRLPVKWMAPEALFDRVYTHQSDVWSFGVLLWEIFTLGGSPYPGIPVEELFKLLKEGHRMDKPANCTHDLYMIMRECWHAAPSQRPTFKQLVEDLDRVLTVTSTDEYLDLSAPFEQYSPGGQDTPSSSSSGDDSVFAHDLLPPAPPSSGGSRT
Experiment: phosphorylation enrichment, bacterial display (enrichment ratio); higher = better substrate or ligand; peptides without Tyr show the background
Each entry gets NO if its phosphorylation enrichment stays under 0.5, and YES if its phosphorylation enrichment is 0.5 or above.

INSERT INTO measurements (seq_string, experimental_system, qualitative_label) VALUES
  ('NHQFDYTFDWT [CSNK1A1_Y294_YF]', 'FGFR3 (UniProt P22607)', 'YES'),
  ('CCNHPYLINGA [CHD7_Y1256]', 'FGFR3 (UniProt P22607)', 'YES'),
  ('DEEPPHRGPFC [SASH1_Y551_Y551H]', 'FGFR3 (UniProt P22607)', 'YES'),
  ('DPHQQYYIAMD [TBX15_Y159]', 'FGFR3 (UniProt P22607)', 'YES'),
  ('LFSGDYFRIQG [DDR2_Y740_YF]', 'FGFR3 (UniProt P22607)', 'YES'),
  ('IQVDAYFSPIH [ADSL_Y432]', 'FGFR3 (UniProt P22607)', 'YES'),
  ('KVMANYMFKAG [MAML2_Y513_YF]', 'FGFR3 (UniProt P22607)', 'NO'),
  ('VSTAVYKRFPS [BEST1_Y148]', 'FGFR3 (UniProt P22607)', 'NO'),
  ('KYLENYYDLKK [MMP3_Y41]', 'FGFR3 (UniProt P22607)', 'YES'),
  ('YISLIYTNYEV [GSTP1_Y109_A114V]', 'FGFR3 (UniProt P22607)', 'YES'),
  ('LADKPYTFEYY [FXN_Y118_D122Y]', 'FGFR3 (UniProt P22607)', 'YES'),
  ('VIEFSYTSADG [DHCR7_Y382_C380Y_YF]', 'FGFR3 (UniProt P22607)', 'YES'),
  ('RIGRKCKKVRF [F8_Y442_Y442C]', 'FGFR3 (UniProt P22607)', 'YES'),
  ('FTRNYYVWAVL [CYBA_Y88_R90W]', 'FGFR3 (UniProt P22607)', 'YES'),
  ('KSPDSYQKILF [ATM_Y1415_L1420F]', 'FGFR3 (UniProt P22607)', 'NO'),
  ('EHVMPYAANKN [GRIN2A_Y1431]', 'FGFR3 (UniProt P22607)', 'NO'),
  ('TLNHQYDFTFH [CSNK1A1_Y292_D297H_YF]', 'FGFR3 (UniProt P22607)', 'YES'),
  ('GVLKEYVVKVL [CPS1_Y529_G530V]', 'FGFR3 (UniProt P22607)', 'YES'),
  ('VIIVLYFSLWK [SLC6A2_Y249_V245I]', 'FGFR3 (UniProt P22607)', 'YES'),
  ('CDFKKYGKGLR [ZNF445_Y433_Y428C_YF]', 'FGFR3 (UniProt P22607)', 'YES'),
  ('GSTLSYFGLAA [P2RX7_Y343]', 'FGFR3 (UniProt P22607)', 'YES'),
  ('PVDVAYRRGFF [PLEC_Y2967_YF]', 'FGFR3 (UniProt P22607)', 'YES'),
  ('IGLHAYGDQYR [IDH1_Y135_R132L]', 'FGFR3 (UniProt P22607)', 'YES'),
  ('PGRRFYVVACD [RNASE3_Y134]', 'FGFR3 (UniProt P22607)', 'YES'),
  ('GESKDYALHAG [SVIL_Y185_V189A]', 'FGFR3 (UniProt P22607)', 'NO');
